# targetUnderTest: NLuc::LmxCLK1 (Leishmania mexicana, UniProt E9AMP2)
# assayComment: cell-based
# Type: cell-based
# condition: 10 µM compound, tracer SV366, promastigotes, mean of two experiments
# Method: All compounds were tested at a fixed concentration of 10 µM to enable direct comparison of their target occupancy in live cells. Serially diluted probes (5 µL) were added to 85 µL of cells in culture media or 85 µL of purified protein. […] Light emissions at 460+10 nm (BRET donor) and at 610+20 nm (BRET acceptor) were sequentially recorded (integration time = 0.5 s, gain = 3600) using a luminometer (BMG LABTECH Clariostar or Biotek Synergy HT). […]
propertyLabel: Target occupancy Average (%)
Give bare numbers, in %.

Solved entries:
compound	quantitativeReadout
CNc1nc(Nc2cnn([C@H]3CCN(C4COC4)C[C@@H]3F)c2Cl)ncc1C(F)(F)F [GNE-9605]	-1.1
O=C(c1ccc(Nc2nccc(-c3cc4ccccc4s3)n2)cc1)N1CCC(N2CCCC2)CC1 [IKK-16 (IKK Inhibitor VII)]	0.0
c1cncc(CN2CCC(n3ncc4c(N5CCOCC5)nc(-c5ccc6[nH]ccc6c5)nc43)CC2)c1 [WAY-600]	-3.4
C=CC(=O)Nc1cccc(Nc2nc(Nc3ccc(Oc4ccnc(C(=O)NC)c4)cc3)ncc2F)c1 [CNX-774]	-6.8
CC(C)(C)n1nc(-c2ccc(Cl)cc2)c2c(N)ncnc21 [PP2]	-1.3

Provide the reported Target occupancy Average of each entry below, same order.
1. COc1ccc(-c2cc3c(C)nc(N)nc3n([C@H]3CC[C@H](OCCO)CC3)c2=O)cn1 [PF-04691502]
2. Cn1cc(C2=C(c3cn(C4CCN(Cc5ccccn5)CC4)c4ccccc34)C(=O)NC2=O)c2ccccc21 [Enzastaurin (LY317615)]

1. -14.6
2. 0.3

The value of Target occupancy Average measured for the compound C=CS(=O)(=O)NC1CCN(C(=O)CNc2cc(I)c(Cl)cc2OC)CC1 [K-Ras(G12C) inhibitor 9] turned out to be -15.5

###

# targetUnderTest: LmxCLK1 (Leishmania mexicana, UniProt E9AMP2)
# assayComment: biochemical
# Type: binding
# condition: DSF, 10 µM compound, 2 µM LmxCLK1, mean of two runs
Kindly apply the following: 1 if ΔTm Average is less than -0.1 °C, -1 in every other case.

Example cases with answers are listed next.
compound	categoryLabel
Nc1cccc(-c2cc3c(Oc4cccc(O)c4)ncnc3[nH]2)c1	-1
NC1(Cc2ccc(Cl)cc2)CCN(c2ncnc3[nH]ccc23)CC1	-1
N#C/C(=C(/N)Sc1ccc(N)cc1)c1ccccc1C(F)(F)F	1
COc1cc2c(Oc3ccc4[nH]c(C)cc4c3F)ncnc2cc1OCCCN1CCCC1	-1
C[C@@H](Oc1cc(-c2cnn(C3CCNCC3)c2)cnc1N)c1c(Cl)ccc(F)c1Cl	-1

Lab note: confirm whether the reported ΔTm Average for this compound is below -0.1 °C, equality not counting. compound: COc1ccc(S(=O)(=O)N(CCO)c2ccccc2CN(C)C/C=C/c2ccc(Cl)cc2)cc1.O=P(O)(O)O [KN-93 Phosphate]
1

Lab note: confirm whether the reported ΔTm Average for this compound is below -0.1 °C, equality not counting. compound: N#Cc1c(Oc2ccc(F)c(NC(=O)Cc3cccc(C(F)(F)F)c3)c2)ccc2nc(NC(=O)C3CC3)sc12
-1

Lab note: confirm whether the reported ΔTm Average for this compound is below -0.1 °C, equality not counting. compound: CC(C)n1nc(-c2ccc3oc(N)nc3c2)c2c(N)ncnc21
-1

Lab note: confirm whether the reported ΔTm Average for this compound is below -0.1 °C, equality not counting. compound: Cn1cnc2c(F)c(Nc3ccc(Br)cc3F)c(C(=O)NOCCO)cc21
1

###

# targetUnderTest: LmxCLK1 (Leishmania mexicana)
# Sequence (E9AMP2 1-422): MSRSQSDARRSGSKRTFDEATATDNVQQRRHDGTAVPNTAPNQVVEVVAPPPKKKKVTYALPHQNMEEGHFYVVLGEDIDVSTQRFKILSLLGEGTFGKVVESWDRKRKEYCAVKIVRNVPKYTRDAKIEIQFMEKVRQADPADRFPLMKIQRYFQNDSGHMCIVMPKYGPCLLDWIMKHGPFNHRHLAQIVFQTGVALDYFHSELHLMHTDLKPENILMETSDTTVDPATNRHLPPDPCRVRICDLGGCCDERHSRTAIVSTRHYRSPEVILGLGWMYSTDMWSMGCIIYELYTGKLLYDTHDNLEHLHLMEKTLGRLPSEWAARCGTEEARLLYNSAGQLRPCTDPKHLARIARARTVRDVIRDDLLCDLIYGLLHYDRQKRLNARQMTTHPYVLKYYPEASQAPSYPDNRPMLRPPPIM
# assayComment: biochemical
# Type: binding
# condition: DSF, 10 µM compound, 2 µM LmxCLK1, mean of two runs
propertyLabel: ΔTm Average (°C)
Give bare numbers, in °C.

compound	outputUnit	ΔTm Average
CN(C)c1ccc(-c2nc3ncc(Cl)c(N4CCN(CC(=O)Nc5nccs5)CC4)c3[nH]2)cc1	°C	0.0
CN1CCC(CNc2ccc3ncc(-c4cccc(OC(F)(F)F)c4)n3n2)CC1 [SGI-1776 free base]	°C	0.6
C#Cc1cccc(Nc2ncnc3cc(OCCOC)c(OCCOC)cc23)c1.Cl [Erlotinib HCl (OSI-744)]	°C	0.1

The value of ΔTm Average measured for the compound CCn1c(N)c(C(=O)NC)c(=O)c2ccc(C#C[C@@](C)(O)COC)nc21 turned out to be 0.0

###

# targetUnderTest: NLuc::LmxCLK1 (Leishmania mexicana, UniProt E9AMP2)
# assayComment: cell-based
# Type: cell-based
# condition: 10 µM compound, tracer SV366, promastigotes
propertyLabel: Target occupancy Run 2 (%)
Give bare numbers, in %.

Solved entries:
molecule	outputUnit	quantitativeReadout
O=C1Nc2ccc(I)cc2/C1=C/c1cc(Br)c(O)c(Br)c1	%	-6.2
O=C(c1ccc(Nc2nccc(-c3cc4ccccc4s3)n2)cc1)N1CCC(N2CCCC2)CC1	%	-10.2
NC(=O)c1cccc(-c2cc(Nc3ccc(OC(F)(F)F)cc3)ncn2)c1	%	-14.2
COc1cc2ncnc(Nc3ccc(F)c(Cl)c3)c2cc1NC(=O)/C=C/CN1CCCCC1	%	-14.2
CNc1nc(Nc2cnn([C@H]3CCN(C4COC4)C[C@@H]3F)c2Cl)ncc1C(F)(F)F	%	-5.2
CCN1/C(=C/C(C)=O)Sc2ccc(OC)cc21	%	-15.2
COC(=O)c1ccc2c(c1)NC(=O)/C2=C(\Nc1ccc(N(C)C(=O)CN2CCN(C)CC2)cc1)c1ccccc1	%	-11.3
O=C1NC(=O)C(=Cc2ccc(-c3ccc(F)cc3)o2)S1	%	10.0
O=C(NCc1ccccc1)c1csc(Nc2ccncn2)n1	%	1.5
CNC(=O)c1ccccc1Nc1nc(Nc2ccc(N3CCOCC3)cc2OC)ncc1Cl	%	-0.7

Provide the reported Target occupancy Run 2 of each entry below, same order.
1. Cc1[nH]c2ccccc2c1C1=C(NCCc2ccc(F)cc2)C(=O)N(C)C1=O
2. N#Cc1c(O)c2c(-c3ccc(-c4ccccc4O)cc3)csc2[nH]c1=O
3. Cc1ccc(S(=O)(=O)/C=C/C#N)cc1
4. COc1cc(Nc2ncc(F)c(Nc3ccc4c(n3)N(COP(=O)(O)O)C(=O)C(C)(C)O4)n2)cc(OC)c1OC [Fostamatinib (R788)]
5. COc1cc2ncnc(Nc3ccc(O)c(Br)c3)c2cc1OC
6. O=C(/C=C/c1ccc2ccccc2n1)c1ccncc1
7. O=C(NCCO)c1cccc(-c2cc(Nc3ccc(OC(F)(F)F)cc3)ncn2)c1

1. -14.5
2. -1.3
3. -14.7
4. -17.9
5. -12.9
6. -9.2
7. -2.3

The value of Target occupancy Run 2 measured for the molecule COc1cc(Nc2c(C#N)cnc3cc(OCCCN4CCN(C)CC4)c(OC)cc23)c(Cl)cc1Cl [Bosutinib (SKI-606)] turned out to be -36.0

###

Task for the reader: assign each of the following molecules its reported ΔTm at 10 µM.
# targetUnderTest: LmxCLK1 (Leishmania mexicana, UniProt E9AMP2)
# assayComment: biochemical
# Type: binding
# condition: DSF, 10 µM compound, 2 µM LmxCLK1, mean of two runs; read-out: ΔTm Average
Please answer using a numeric value trailed by its unit.

Solved entries:
smilesString	ΔTm at 10 µM
Cc1nc(Nc2[nH]nc3c2CN(C(=O)N[C@H](CN(C)C)c2ccccc2)C3(C)C)c2sccc2n1	0.6 °C
CC(C)NC[C@@H](C(=O)N1CCN(c2ncnc3c2[C@H](C)C[C@H]3O)CC1)c1ccc(Cl)cc1	0.2 °C
O=C(NCCCNc1nc(Nc2cccc(NC(=O)N3CCCC3)c2)ncc1I)c1cccs1	0.2 °C

Now take the following molecule into account.
The value of ΔTm at 10 µM measured for the molecule CCc1nc(-c2cccc(C)c2)c(-c2ccnc(NC(=O)c3ccccc3)c2)s1 turned out to be 0.7 °C
